growth inhibition by entry:
experiment: NCI Yeast Anticancer Drug Screen. Data for the sgs1 mgt1 strain (AID 161);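 further: 0% = growth of cultures given vehicle only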; conditions: S. cerevisiae sgs1 mgt1 strain, at 50.0 µM, hits give high values
Compounds without any hit were thinned out: in the full panel of roughly 79,000, 15% have a hit. The source made the active and inactive calls. No stated cut-off is given here; in the data, active means growth inhibition above about 70%; inactive means the rest.

Check out these entries, answers already filled in.
CC[O-].CC[O-].O=C([CH-]C(=O)c1ccccc1)c1ccccc1.O=C([CH-]C(=O)c1ccccc1)c1ccccc1.[Ti+4] :: 29.1% (inactive)
O=C(O)C(O)c1ccc(Cl)cc1 (stereo not drawn) :: -14.8% (inactive)
NC1=Nc2ccccc2Sc2ccccc21 :: -44.5% (inactive)
O=C(c1ccccc1)c1ccc2n[se]nc2c1 :: 18.2% (inactive)
c1ccc(N2CCNCC2)cc1 :: -27.2% (inactive)
O=c1ccc2cc3ccoc3c(O)c2o1 :: 25.7% (inactive)

Ask: # lookup: growth inhibition of CCCCC(CC)COP(=S)(S)OCC(CC)CCCC.[Sn] (stereo not drawn)
Result: -6.5% (inactive)

Ask: Consider next the compound COc1cccc2c1C(=O)c1c(O)c3c(c(O)c1C2=O)C[C@@](O)(C(=O)CO)C[C@@H]3OC1CC(N2CCOCC2C#N)C(O)C(C)O1 (stereo partly drawn) in the same way.
Result: 92.4% (active)
